assay method text: Excretion in bile duct-cannulated rats
Assay type: in vivo, Sprague-Dawley rats
settings: rat, urine, iv; bile duct-cannulated male Sprague-Dawley rats, single 5 mg/kg i.v. bolus, over 5 days, n = 3; read-out: total dose recovered in urine
Starred links: 1 amine or outer side, 2 acyl side, 3 side chain; linkers in the order of their positions; H or OH if unused. Positions of bridges follow the written chain, without caps; N, C: chain ends. Non-standard residues stand in square brackets, D forms with d. Residues, ends and D or L forms follow the SMILES beside them. *: point of attachment. Orn(4R-OH,5R-OCH2CH2NMe3+) = C[N+](C)(C)CCO[C@@H](N[*:3])[C@H](O)C[C@H](N[*:1])C(=O)[*:2]; pTerphenylCO(4''-OnC5H11) = CCCCCOc1ccc(-c2ccc(-c3ccc(C(=O)*)cc3)cc2)cc1; hTyr(3S-OH,4S-OH) = N[C@H](C(=O)O)[C@H](O)[C@@H](O)c1ccc(O)cc1; Pro(3S-OH,4S-Me) = C[C@H]1CN[C@H](C(=O)O)[C@H]1O; Hyp = O=C(O)[C@@H]1C[C@@H](O)CN1

>  <compound>
CCCCCOc1ccc(-c2ccc(-c3ccc(C(=O)N[C@H]4C[C@@H](O)[C@@H](OCC[N+](C)(C)C)NC(=O)[C@@H]5[C@@H](O)[C@@H](C)CN5C(=O)[C@H]([C@@H](C)O)NC(=O)[C@H]([C@H](O)[C@@H](O)c5ccc(O)cc5)NC(=O)[C@@H]5C[C@@H](O)CN5C(=O)[C@H]([C@@H](C)O)NC4=O)cc3)cc2)cc1 [CD101] ({pTerphenylCO(4''-OnC5H11)}-[Orn(4R-OH,5R-OCH2CH2NMe3+)]T[Hyp][hTyr(3S-OH,4S-OH)]T[Pro(3S-OH,4S-Me)]; lactam 1-C)

>  <dose excreted at 120 h>
1.4%

$$$$

---

assay method text: Mouse pharmacokinetics, i.p. injection
settings: in vivo, ip, female ICR (CD-1) mice, single 16 mg/kg i.p., plasma, LC-MS/MS, noncompartmental from mean profile, n = 3/time point
Starred links: 1 amine or outer side, 2 acyl side, 3 side chain; linkers in the order of their positions; H or OH if unused. Positions of bridges follow the written chain, without caps; N, C: chain ends. Non-standard residues stand in square brackets, D forms with d. Residues, ends and D or L forms follow the SMILES beside them. *: point of attachment. Orn(4R-OH,5R-OCH2CH2NMe3+) = C[N+](C)(C)CCO[C@@H](N[*:3])[C@H](O)C[C@H](N[*:1])C(=O)[*:2]; pTerphenylCO(4''-OnC5H11) = CCCCCOc1ccc(-c2ccc(-c3ccc(C(=O)*)cc3)cc2)cc1; hTyr(3S-OH,4S-OH) = N[C@H](C(=O)O)[C@H](O)[C@@H](O)c1ccc(O)cc1; Pro(3S-OH,4S-Me) = C[C@H]1CN[C@H](C(=O)O)[C@H]1O; Hyp = O=C(O)[C@@H]1C[C@@H](O)CN1

>  <compound>
CCCCCOc1ccc(-c2ccc(-c3ccc(C(=O)N[C@H]4C[C@@H](O)[C@@H](OCC[N+](C)(C)C)NC(=O)[C@@H]5[C@@H](O)[C@@H](C)CN5C(=O)[C@H]([C@@H](C)O)NC(=O)[C@H]([C@H](O)[C@@H](O)c5ccc(O)cc5)NC(=O)[C@@H]5C[C@@H](O)CN5C(=O)[C@H]([C@@H](C)O)NC4=O)cc3)cc2)cc1 [CD101] ({pTerphenylCO(4''-OnC5H11)}-[Orn(4R-OH,5R-OCH2CH2NMe3+)]T[Hyp][hTyr(3S-OH,4S-OH)]T[Pro(3S-OH,4S-Me)]; lactam 1-C)

>  <AUC(0-t)>
902 µg·h/mL

$$$$
